# measurement-target: HLA-A*02:01 (Homo sapiens, UniProt P04439, D140Y/D185E/D98H/E176V/E277Q/G131W/G231S/I119V/I121R/I166T/I218V/L300P/L318F/N151K/N90K/P208A/P217A/Q86G/Q94H/R138H/R169H/T345S)
# assay-details: MHC binding assay: UV-ligand exchange with beta2m ELISA (peptide exchange yield)
# details: binding to HLA-A*02:01
# Description: Candidate peptides for T cell based therapies according to the present invention were further tested for their MHC binding capacity (affinity). The individual peptide-MHC complexes were produced by UV-ligand exchange, where a UV-sensitive peptide is cleaved upon UV-irradiation, and exchanged with the peptide of interest as analyzed. Only peptide candidates that can effectively bind and stabilize the peptide-receptive MHC molecules prevent dissociation of the MHC complexes. […]
observation-type: Peptide exchange (MHC class I binding score, peptide exchange yield)

# count of solved cases: 5
substance | value-measured
353 (YLFEMDSSL; listed as Homo sapiens) [compound 353] | “++” (≥20% = ++)
324 (FLYDEIEAEV; listed as Homo sapiens) [compound 324] | “+++” (≥50 = +++)
197 (ALGPEGGRV; listed as Homo sapiens) [compound 197] | “++” (≥20% = ++)
547 (TLDITPHTV; listed as Homo sapiens) [compound 547] | “+++” (≥50 = +++)
492 (SLFDGFADGLGV; listed as Homo sapiens) [compound 492] | “+++” (≥50 = +++)

# substance 382 (ALQNYIKEA; listed as Homo sapiens) [compound 382] ; its Peptide exchange (MHC class I binding score, peptide exchange yield) = “++” (≥20% = ++)

// recorded Peptide exchange (MHC class I binding score, peptide exchange yield) for 537 (TLAPGEVLRSV; listed as Homo sapiens) [compound 537] : “+++” (≥50 = +++)

// Peptide exchange (MHC class I binding score, peptide exchange yield) value for 549 (AMLENASDIKL; listed as Homo sapiens) [compound 549] : “+++” (≥50 = +++)

----------
# measurement-target: HLA-A*02:01 (Homo sapiens, UniProt P04439, D140Y/D185E/D98H/E176V/E277Q/G131W/G231S/I119V/I121R/I166T/I218V/L300P/L318F/N151K/N90K/P208A/P217A/Q86G/Q94H/R138H/R169H/T345S)
# assay-details: MHC binding assay: UV-ligand exchange with beta2m ELISA (peptide exchange yield)
# details: binding to HLA-A*02:01
# Description: Candidate peptides for T cell based therapies according to the present invention were further tested for their MHC binding capacity (affinity). The individual peptide-MHC complexes were produced by UV-ligand exchange, where a UV-sensitive peptide is cleaved upon UV-irradiation, and exchanged with the peptide of interest as analyzed. Only peptide candidates that can effectively bind and stabilize the peptide-receptive MHC molecules prevent dissociation of the MHC complexes. […]
observation-type: Peptide exchange (MHC class I binding score, peptide exchange yield)

substance | value-measured
171 (LLLPLQILL; listed as Homo sapiens) [compound 171] | “+++” (≥50 = +++)
538 (LLLAHIIAL; listed as Homo sapiens) [compound 538] | “++” (≥20% = ++)
272 (ALGNTVPAV; listed as Homo sapiens) [compound 272] | “+++” (≥50 = +++)
405 (ALYDVFLEV; listed as Homo sapiens) [compound 405] | “++” (≥20% = ++)
54 (SLLEQGKEPWMV; listed as Homo sapiens) [compound 54] | “+++” (≥50 = +++)

Let us examine a further case.
Measured Peptide exchange (MHC class I binding score, peptide exchange yield) of 491 (GLNDRSDAV; listed as Homo sapiens) [compound 491] : “++” (≥20% = ++)
